Where these numbers come from: patent US20240197716A1

experiment: Plasma concentrations in TQT study (LC-MS/MS, non-compartmental PK); assay type: in vivo, human; settings: human, plasma, oral; 400 mg single dose; read-out: Geometric Mean Cmax
ENDPOINT LABEL: Cmax (ng/mL)
Quick reminder: number only, in ng/mL, skip the unit.

**Query** Check the records and state Cmax for COc1c(N2C[C@@H]3CCCN[C@@H]3C2)c(F)cc2c(=O)c(C(=O)O)cn(C3CC3)c12 [moxifloxacin, reference compound]
**Result** 1870

###

test: Plasma concentrations in TQT study (LC-MS/MS, non-compartmental PK); format: in vivo, human; conditions: human, plasma, oral; 400 mg QD, Day 5; read-out: Geometric Mean Cmax
ENDPOINT LABEL: Cmax (ng/mL)
Provide only the numeric value, understood in ng/mL.

**Query** Hello, please tell me recorded Cmax for this one: Cn1cc(S(=O)(=O)N2CCC3=Cc4c(cnn4-c4ccc(F)cc4)C[C@]3(C(=O)c3cc(C(F)(F)F)ccn3)C2)cn1 [relacorilant]
**Result** 1830
